Target: T1, SNTG2, Q9NY99
T1 sequence (Q9NY99 68-166, limits assumed, looked up): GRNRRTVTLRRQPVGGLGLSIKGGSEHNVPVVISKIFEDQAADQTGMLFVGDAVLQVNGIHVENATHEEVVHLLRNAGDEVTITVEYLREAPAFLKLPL
Test: holdup assay
Parameters: key: below the threshold = too weak to quantify, mostly under pKd 3.1 to 4
Settings: plain residues with an end cap or a label only (N-terminal biotin on a linker: ado-ado)
Measure name: pKd

Example entries begin here.
>  <Binder>
QSGLYESEEL [MYOT, Q9UBF9]

>  <Value reported>
below the threshold

$$$$
>  <Binder>
QKAPTKEFYA [SDC2, P34741]

>  <Value reported>
below the threshold

$$$$
>  <Binder>
VLYPREGTEV [FOXI1, Q12951]

>  <Value reported>
3.6

$$$$
>  <Binder>
DRIQSCLSDA [SBF1, O95248]

>  <Value reported>
below the threshold

$$$$
>  <Binder>
KSRVAFFEEL [NF2, P35240]

>  <Value reported>
3.74

$$$$

Field: pKd. Fill in for each record below.
1. PPGKHLVTEV [KCNA7, Q96RP8]
2. NTANRRTTPV [CACNG2, Q9Y698]
3. SVTSERETNI [SLC16A7, O60669]

Ans:
1. below the threshold
2. below the threshold
3. 4.51
